Values compiled from patent US20210122804A1.

System tested: T1, human CD38 (human, UniProt P28907 43-300, limits assumed)
T1 construct: construct used is not described; also called hCD38
T1 sequence (looked up): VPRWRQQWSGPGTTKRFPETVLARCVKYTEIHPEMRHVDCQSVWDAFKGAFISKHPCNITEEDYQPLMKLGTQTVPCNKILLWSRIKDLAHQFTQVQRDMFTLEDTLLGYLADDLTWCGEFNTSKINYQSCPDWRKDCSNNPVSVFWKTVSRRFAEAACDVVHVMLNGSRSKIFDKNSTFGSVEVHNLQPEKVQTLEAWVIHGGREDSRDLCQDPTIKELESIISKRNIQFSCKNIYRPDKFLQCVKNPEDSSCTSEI
Protocol notes: fluorescence polarisation competition; tracer m11
*1 amine or outer side, *2 acyl side, *3 side chain or, on linkers, in order; H or OH if unused. Bridges are numbered along the chain shown (N, C = ends). Where no end group is shown, it is not given here. TATA = O=C(CC[*:1])N1CN(C(=O)CC[*:2])CN(C(=O)CC[*:3])C1
Experimental readout: pKi
Answers are plain numbers, as −log10 of the molar value.

{"Binder": "ACYWNPFTACWSCEND (linker 2-10-13 via TATA (inferred), bicyclic) [66-50-16-T01-N001]", "pKi": 7.05}

Okay, next one:
// ACYWNPFTACYSCTEN (linker 2-10-13 via TATA (inferred), bicyclic; also called 66-50-19-T02-N001) [66-50-19-T002-N001] : pKi value = 6.50
